- Tested on: RPMI-8226 leukemia
- procedureText: NCI tumour cell line growth inhibition, 48 h
measuredProperty: TGI

compound | TGI
CC1(C)OC2C(COS(N)(=O)=O)SC(n3cnc4cncnc43)C2O1 (stereo not drawn) | > 100 µM
NCCC1CN(C(=O)OCc2ccccc2)c2ccccc21 (stereo not drawn) | 46.6 µM

Query :: Recorded TGI for CC(=O)C1C(=O)N(C(C)C)C[C@@H]2CCC(=O)C[C@H]12 (stereo partly drawn) , please?
Result :: > 100 µM

---

Collected TGI values appear next to each entry.
- Tested on: SF-268 CNS
- procedureText: NCI tumour cell line growth inhibition, 48 h

Sample answers from the record:
compound | TGI
CCC1CNC(=O)CC1CC(=O)OC (configuration not stated) | > 100 µM
CN(C)c1ccc(/C=C2\N=C(c3ccccc3)N(c3ccc4c(c3)Sc3cc(N5C(=O)/C(=C/c6ccc(N(C)C)cc6)N=C5c5ccccc5)ccc3N4)C2=O)cc1 | 37.3 µM
O=C1c2ccccc2C(=O)N1c1nc(-c2ccc(Cl)cc2)cc(N2N=C(c3ccc(Br)cc3)CC2c2ccccc2)n1 (configuration not stated) | 7.72 µM
O=c1[nH]c2ccccc2n1-c1n[nH]c2ccccc12 | > 100 µM

Query :: Recorded TGI for CC1=NN(C(=O)c2ccccc2O)C(=O)/C1=C/c1cccc([N+](=O)[O-])c1 , please?
Result :: > 100 µM

Query :: Recorded TGI for N[C@@H]1CCCC[C@@H]1N.O=P([O-])([O-])CN(CP(=O)([O-])[O-])CP(=O)([O-])[O-].[Pt+2] , please?
Result :: > 100 µM

Query :: Recorded TGI for CCOc1ccc(C(CN2CCOCC2)C(C)=O)cc1OC (configuration not stated) , please?
Result :: 41 µM

Query :: Recorded TGI for CSC1=NCC2(S1)c1ccccc1N(C(=O)OC(C)(C)C)C2N1CCCCC1 (configuration not stated) , please?
Result :: > 100 µM

Query :: Recorded TGI for O=C1CC(n2cccc2)c2c(Br)sc(Br)c21 (configuration not stated) , please?
Result :: 31.2 µM

Query :: Recorded TGI for N#Cc1nc(C#N)n(C(=O)c2ccccc2)c1NC(=O)c1ccccc1 , please?
Result :: > 100 µM

Query :: Recorded TGI for O=C(NNCc1ccc(Cl)cc1)Nc1cccc2ccccc12 , please?
Result :: > 100 µM

Query :: Recorded TGI for NC1=NCC(CN2CCCC2)O1 (configuration not stated) , please?
Result :: > 100 µM

Query :: Recorded TGI for COc1cc(/C=C(\C#N)C(N)=C(C#N)C#N)cc(O)c1O , please?
Result :: > 100 µM

---

- System: BT-549 breast
- procedureText: NCI tumour cell line growth inhibition, 48 h
Collected TGI values appear next to each entry.

compound | measuredProperty | reportedValue
CCOP(=O)(Nc1ccc2oc(=O)c3ccccc3c2c1)OCC | TGI | > 100 µM

Query :: Recorded TGI for CC1(C)OC2C(COS(N)(=O)=O)SC(n3cnc4cncnc43)C2O1 (stereo unspecified) , please?
Result :: > 100 µM

Query :: Recorded TGI for CC1OC2OC3C(OCC(O)C3O)OC(=O)[C@]34CCC(C)(C)CC3C3=CCC5[C@@]6(C)C[C@H](O)[C@H](OC7OC(CO)C(O)C(O)C7OC7OCC(OC(=O)CC(C)(O)CC(=O)OC1C(OC1OC(CO)C(O)C(O)C1O)C2O)C(O)C7O)[C@@](C)(CO)C6CC[C@@]5(C)[C@]3(C)CC4 (stereo partly specified) , please?
Result :: 21.1 µM

Query :: Recorded TGI for Cc1[nH]c(=O)[nH]c(=S)c1C(=O)Nc1cccc2cc3ccccc3cc12 , please?
Result :: > 100 µM

Query :: Recorded TGI for CCOC(=O)c1cnccc1CC1(C#N)c2ccccc2C=CN1C(=O)c1ccccc1 (stereo unspecified) , please?
Result :: > 100 µM

Query :: Recorded TGI for CC1CC2(C)CC(=O)C1C1C(=O)N(CCN3CCCCC3)C(=O)C12 (stereo unspecified) , please?
Result :: > 100 µM

---

- System: SK-MEL-28 melanoma
- procedureText: NCI tumour cell line growth inhibition, 48 h
measuredProperty: TGI

Sample answers from the record:
compound | reportedValue
NC(=O)CO/N=C1/C(c2c(O)[nH]c3ccccc23)=Nc2ccccc21 | > 100 µM
O=C1C=CC(=O)c2c(O)c(N3CCN(CCOCCO)CC3)c(Cl)c(O)c21 | 2.89 µM [middle of 4 runs]
Cc1ccc(/C(O)=C/c2nc3ccc([N+](=O)[O-])cc3nc2/C=C(\O)c2ccc(C)cc2)cc1 | > 100 µM

Read the next record carefully.
Query :: Recorded TGI for NC1=NCC(CN2CCCC2)O1 (centres undefined) , please?
Result :: > 100 µM

---

- Tested on: EKVX NSCLC
- procedureText: NCI tumour cell line growth inhibition, 48 h
measuredProperty: log10 TGI (log10 of the value in µM)
Please interpret these as log10 of TGI where TGI is in µM.

Sample answers from the record:
molecule | targetEntity | measuredProperty | reportedValue
Cc1cc(C(O)CN(C)C)cc2c1ccc1cc(C(C)C)ccc12 (configuration not stated) | EKVX NSCLC | log10 TGI | 1.25
CC(=O)/C(=C\c1ccc(Cl)c(Cl)c1)C(=O)C(C)CN(C)C (configuration not stated) | EKVX NSCLC | log10 TGI | 1.44
C[C@]12CC[C@H](OC3CCCCO3)CC1=CC[C@@H]1C2CC[C@]2(C)/C(=N/O)CCC12 (some centres not stated) | EKVX NSCLC | log10 TGI | 1.92
Cc1ccc(C(C)C)cc1NC(=O)Nc1ccc([N+](=O)[O-])cc1 | EKVX NSCLC | log10 TGI | 0.90

Read the next record carefully.
Query :: Item: O=C1C=CC2(C=C1)C[C@H](NC(=O)C(F)(F)F)C(=O)O2 Test system: EKVX NSCLC Read-out: log10 TGI Value: ?
Result :: 1.60

---

- System: HOP-62 NSCLC
- procedureText: NCI tumour cell line growth inhibition, 48 h
measuredProperty: TGI

Sample answers from the record:
compound | TGI
COc1ccc(OC)c2c3c(ccc12)C(c1ccccc1)OC3=O (stereo unspecified) | > 100 µM
Cc1ccc(C(C)C)cc1NC(=O)Nc1ccc([N+](=O)[O-])cc1 | 5.92 µM
Oc1[nH]c2cc(Cl)ccc2c1/C=c1/ccc2c(c1)N=C(c1cc(F)cc(F)c1)N=2 | 8.44 µM
O=C(c1ccco1)N(C(=S)OC12CC3CC(CC(C3)C1)C2)c1ccccc1 | > 100 µM
Cc1ccc(NC(=O)CC(=O)N2N=C(N(CCC#N)c3cccc(C)c3)CC2c2ccccc2)cc1 (stereo unspecified) | > 100 µM
CCOP(=O)(OCC)C(C)(CC)NC(=O)C(C(F)(F)F)C(F)(F)F (stereo unspecified) | > 100 µM

Query :: Recorded TGI for O=S(=O)(c1ccc(O)c(C=Nc2ccc(Cl)cc2)c1)c1ccc(O)c(C=Nc2ccc(Cl)cc2)c1 , please?
Result :: > 100 µM

Query :: Recorded TGI for CC(=O)Oc1ccc(/C=N/NC(N)=S)nc1 , please?
Result :: 77.6 µM

Query :: Recorded TGI for CC(C)(C)OC(=O)n1cc(C2CN(O)C(=O)C23CCC(=O)N3Cc2ccccc2)c2ccccc21 (stereo unspecified) , please?
Result :: > 100 µM

Query :: Recorded TGI for NC1=NCC(CN2CCCC2)O1 (stereo unspecified) , please?
Result :: > 100 µM

Query :: Recorded TGI for CC(=O)Nc1cc(Nc2cc(=O)[nH]c(=O)[nH]2)ccc1C , please?
Result :: > 100 µM

---

- Test system: OVCAR-8 ovarian
- procedureText: NCI tumour cell line growth inhibition, 48 h
measuredProperty: TGI

Sample answers from the record:
molecule | TGI
COC(=O)CCCC(=O)NC1=C(NCc2ccccc2)C(=O)c2ccccc2C1=O | > 100 µM
CC1=C(C(=O)Nc2ccc(Cl)c(Cl)c2)C(c2ccccc2O)NC(=O)N1 (stereo unspecified) | > 50 µM
S=C(NCc1ccccc1)N/N=C/c1ccccn1 | > 76.2 µM
CC1(C2CCC3(C)OC3C2)CO1 (stereo unspecified) | > 100 µM
COc1ccc(C(O)CC(O)(C(F)(F)F)C(F)(F)F)cc1 (stereo unspecified) | > 100 µM

Read the next record carefully.
Query :: Item: NCCC1CN(C(=O)OCc2ccccc2)c2ccccc21 (stereo unspecified) Test system: OVCAR-8 ovarian Read-out: TGI Value: ?
Result :: 20.3 µM

---

- Test system: DLD-1 colon
- procedureText: NCI tumour cell line growth inhibition, 48 h
Collected TGI values appear next to each entry.

molecule | TGI
CCSC(SCC)=C1C(=O)N(c2ccccc2)N=C1C | 26.8 µM
COc1ccc(CCc2cc(OC)c(OC)c(OC)c2)cc1 | > 100 µM
COc1nc(NC2OC(COC(C)=O)C(OC(C)=O)C(OC(C)=O)C2OC(C)=O)c(-c2csc(N)n2)c(=O)n1C (stereo not drawn) | > 100 µM
COC(=O)/C(=N/NC(N)=O)C(C(=O)OC)C(=O)C(=O)Nc1ccc(Cl)cc1 (stereo not drawn) | > 100 µM
CCOc1ccc(C(CN2CCOCC2)C(C)=O)cc1OC (stereo not drawn) | 27.9 µM

Query :: Item: C[N+](C)(C)CC1CCCC(C[N+](C)(C)C)C1O (stereo not drawn) Test system: DLD-1 colon Read-out: TGI Value: ?
Result :: > 100 µM

Query :: Item: CC1CC[C@]2(C(=O)O)CCC3(C)C(=CCC4[C@@]5(C)CC[C@H](OS(=O)(=O)c6ccccc6)C(C)(C)C5CC[C@]43C)[C@@H]2[C@H]1C (stereo partly drawn) Test system: DLD-1 colon Read-out: TGI Value: ?
Result :: > 100 µM

Query :: Item: CC(=O)C1C(=O)N(C(C)C)C[C@@H]2CCC(=O)C[C@H]12 (stereo partly drawn) Test system: DLD-1 colon Read-out: TGI Value: ?
Result :: > 100 µM
